measured_on: human PCSK9 (Homo sapiens, UniProt Q8NBP7)
Sequence (Q8NBP7 153-692): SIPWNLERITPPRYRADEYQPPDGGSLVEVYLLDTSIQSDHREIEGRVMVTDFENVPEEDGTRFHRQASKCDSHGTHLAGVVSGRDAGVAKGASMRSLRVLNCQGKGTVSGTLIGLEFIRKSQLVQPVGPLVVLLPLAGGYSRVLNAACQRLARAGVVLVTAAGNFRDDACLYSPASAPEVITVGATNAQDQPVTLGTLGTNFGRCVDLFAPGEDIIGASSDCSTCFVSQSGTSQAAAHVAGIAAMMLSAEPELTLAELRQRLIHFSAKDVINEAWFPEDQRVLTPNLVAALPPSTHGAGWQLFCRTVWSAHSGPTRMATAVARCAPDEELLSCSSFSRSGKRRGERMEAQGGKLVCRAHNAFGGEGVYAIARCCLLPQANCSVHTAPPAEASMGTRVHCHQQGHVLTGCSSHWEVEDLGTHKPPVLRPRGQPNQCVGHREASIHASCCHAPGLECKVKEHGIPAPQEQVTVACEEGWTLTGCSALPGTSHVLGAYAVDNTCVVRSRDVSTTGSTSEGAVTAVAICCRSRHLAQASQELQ
Sequence (Q8NBP7 31-152 partner limits assumed): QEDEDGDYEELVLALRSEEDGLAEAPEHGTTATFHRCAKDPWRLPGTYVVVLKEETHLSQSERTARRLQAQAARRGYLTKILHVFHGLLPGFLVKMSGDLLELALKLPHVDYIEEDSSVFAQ
method_notes: PCSK9 ligand binding assay (TR-FRET): interference with binding of human PCSK9 to human LDLR
condition: Human PCSK9 Alexa Fluor 647 / Human LDLR extracellular domain-Europium Kryptate
readout_type: IC50 (nM)

Before answering, review these 3 worked examples.
>  <structure>
C[C@H]1C(=O)N[C@@H](CO)C(=O)N[C@@]2(Cc3ccc(Cl)cc3)CCCN(C2)C(=O)[C@H](Cc2cccnc2)CC(=O)N1Cc1ccc(Cl)cc1Oc1ccc(-c2cnc(CN3CCOCC3)n2C)cc1.Cl

>  <obs_value>
0.82

$$$$
>  <structure>
C[C@H]1C(=O)N[C@@H](CO)C(=O)N[C@@]2(Cc3ccc(Cl)cc3)CCCN(C2)C(=O)[C@H]([C@@H]2CCc3ccccc32)CC(=O)N1Cc1ccc(C(F)(F)F)cc1Oc1ccc(-c2cnc(CN(C)C)n2C)cc1

>  <obs_value>
1.71

$$$$
>  <structure>
COC[C@@H]1NC(=O)[C@H](C)N(Cc2ccc(Cl)cc2Oc2ccc(-c3cnc(CN4CCCC4)n3C)cc2)C(=O)C[C@@H](Cc2ccccc2)C(=O)NC[C@@H](Cc2ccc(Cl)cc2)N(C)C1=O.Cl

>  <obs_value>
2.37

$$$$

1. C[C@H]1C(=O)N[C@@H](CO)C(=O)N[C@@]2(Cc3ccc(Cl)cc3)CCCN(C2)C(=O)[C@H](Cc2c(F)cccc2F)CC(=O)N1Cc1c(F)cc(Cl)cc1Oc1ccc(-c2cnc(CN(C)C)n2C)cc1
2. C[C@H]1C(=O)N[C@@H](CO)C(=O)N[C@@]2(Cc3ccc(Cl)cc3)CCCN(C2)C(=O)[C@H]([C@@H]2CCc3ccccc32)CC(=O)N1Cc1cc(F)ccc1Oc1ccc(-c2cnc(CN(C)C)n2C)cc1
// task: argmin of IC50 over [ 1 , 2 ] API: response body contains the label of the selected item.
1

###

measured_on: human PCSK9 (Homo sapiens)
method_notes: PCSK9 ligand binding assay (TR-FRET): interference with binding of human PCSK9 to human LDLR
condition: Human PCSK9 Alexa Fluor 647 / Human LDLR extracellular domain-Europium Kryptate
pIC50: −log10 of the molar value.
readout_type: pIC50

>  <structure>
C[C@H]1C(=O)N[C@@H](CO)C(=O)N[C@@]2(Cc3ccc(Cl)cc3)CCCN(C2)C(=O)[C@H](Cc2ccccn2)CC(=O)N1Cc1ccc(Cl)cc1Oc1ccc(-c2cnc(CN3CCCC3)n2C)cc1

>  <measured_on>
human PCSK9 (Homo sapiens)

>  <pIC50>
9.25

$$$$

I. CNCc1ncc(-c2ccc(Oc3cc(Cl)cc(F)c3CN3C(=O)C[C@@H](CC(F)(F)F)C(=O)N4CCC[C@@](Cc5ccc(Cl)cc5)(C4)N(C)C(=O)[C@H](COC)NC(=O)[C@@H]3C)cc2)n1C
II. COC[C@@H]1NC(=O)[C@H](C)N(Cc2ccc(Cl)cc2Oc2ccc(-c3cnc(CN(C)C)n3C)nc2)C(=O)C[C@@H](Cc2cccc(C)n2)C(=O)N2CCC[C@@](Cc3ccc(Cl)cc3)(C2)N(C)C1=O
Could you tell me which of I and II has the lower pIC50 reading? In your reply, give the label of the chosen option.
I

###

measured_on: human PCSK9 (Homo sapiens, UniProt Q8NBP7)
method_notes: PCSK9 ligand binding assay (TR-FRET): interference with binding of human PCSK9 to human LDLR
condition: Human PCSK9 Alexa Fluor 647 / Human LDLR extracellular domain-Europium Kryptate
readout_type: IC50 (nM)

>  <compound>
CCC[C@@H]1CC(=O)N(Cc2c(F)cc(Cl)cc2Oc2ccc(-c3cnc(CN(C)C)n3C)cc2)[C@@H](C)C(=O)N[C@@H](CO)C(=O)N[C@@]2(Cc3ccc(Cl)cc3)CCCN(C2)C1=O [Compound 51]

>  <IC50 [nM]>
1.12

$$$$

A. COC[C@@H]1NC(=O)[C@H](CCCN2CCOCC2)N(Cc2ccc(Cl)cc2Oc2ccc(-c3cnc(CN(C)C)n3C)cc2)C(=O)C[C@@H]([C@H]2CCc3ccccc32)C(=O)N(C)C[C@@H](Cc2ccc(Cl)cc2)N(C)C1=O.Cl [Compound 127]
B. C[C@H](O)[C@@H]1NC(=O)[C@H](C)N(Cc2ccc(Cl)cc2Oc2ccc(-c3cnc(CN(C)C)n3C)cc2)C(=O)C[C@@H](CC(F)(F)F)C(=O)N2CCC[C@@](Cc3ccc(Cl)cc3)(C2)NC1=O [Compound 64]
C. C[C@@H](O)[C@@H]1NC(=O)[C@H](C)N(Cc2ccc(Cl)cc2Oc2ccc(-c3cnc(CN(C)C)n3C)cc2)C(=O)C[C@@H](CC(F)(F)F)C(=O)N2CCC[C@@](Cc3ccc(Cl)cc3)(C2)NC1=O [Compound 97]
D. COC[C@@H]1NC(=O)[C@H](C)N(Cc2c(F)cc(Cl)cc2Oc2ccc(-c3cnc(CN(C)C(C)(C)C)n3C)cc2)C(=O)C[C@@H](CC(F)(F)F)C(=O)N2CCC[C@@](Cc3ccc(Cl)cc3)(C2)NC1=O [Compound 137]
Hey, quick one: sort these by IC50, largest value first please. // rank by listing labels in the order requested
A, C, B, D
